System: NF-κB
Assay: NF-κB inhibitor screen: basal NF-κB-dependent luciferase expression in HEK/NF-κB cell line
Assay type: cell-based
Details: 1 uM; determined as described in Example 398; read-out: NFkB inhibition @ 1 uM
Reported inhibition at 1 µM values follow for various compounds

| compound | inhibition at 1 µM / % |
| --- | --- |
| Cc1nc(Nc2ccc(Cl)cc2)sc1-c1nc2ccccc2c(=O)n1-c1ccccc1 [Example 158] | -9 |
| Cc1nc(Nc2ccccc2)sc1-c1nc2ccccc2c(=O)n1-c1ccccc1Cl [Example 229] | 6 |
| CCOC(=O)Nc1nc(-c2ccccc2)c(-c2nc3ccccc3c(=O)n2-c2ccc(Cl)cc2)s1 [Example 249] | 16 |
| CNc1nc(C)c(-c2nc3ccccc3c(=O)n2-c2ccc(C(C)=O)cc2)s1 [Example 261] | 71 |
| Cc1nc(Nc2ccccc2)sc1-c1nc2ccccc2c(=O)n1-c1ccc(Cl)cc1 [Example 245] | 79 |
| CCOC(=O)Nc1nc(-c2ccccc2)c(-c2nc3ccccc3c(=O)n2-c2ccccc2C)s1 [Example 171] | 23 |
| Cc1ccc(-n2c(-c3sc(Nc4ccc(Cl)cc4)nc3C)nc3ccccc3c2=O)cc1 [Example 192] | 12 |
| O=c1c2ccccc2nc(-c2sc(Nc3ccccc3)nc2-c2ccccc2)n1-c1ccccc1 [Example 161] | 80 |
| CCOC(=O)Nc1nc(C)c(-c2nc3ccccc3c(=O)n2-c2ccc(Cl)cc2)s1 [Example 242] | 53 |
| O=c1c2ccccc2nc(-c2sc(Nc3ccc(Cl)cc3)nc2-c2ccccc2)n1-c1ccccc1 [Example 165] | -47 |
| COC(=O)Nc1nc(-c2ccccc2)c(-c2nc3ccccc3c(=O)n2-c2ccc(Cl)cc2)s1 [Example 250] | 17 |
| CCOC(=O)Nc1nc(-c2ccccc2)c(-c2nc3ccccc3c(=O)n2-c2ccc(C)cc2)s1 [Example 193] | 2 |
| CCOC(=O)Nc1nc(C)c(-c2nc3ccccc3c(=O)n2-c2ccccc2)s1 [Example 154] | 19 |
| CNc1nc(-c2ccccc2)c(-c2nc3ccccc3c(=O)n2-c2cccc(C)c2)s1 [Example 186] | 23 |
| Cc1nc(Nc2ccc(Cl)cc2)sc1-c1nc2ccccc2c(=O)n1-c1ccccc1Cl [Example 230] | 60 |
| CC(=O)c1ccc(-n2c(-c3sc(Nc4ccc(Cl)cc4)nc3-c3ccccc3)nc3ccccc3c2=O)cc1 [Example 271] | -12 |
| CNc1nc(-c2ccccc2)c(-c2nc3ccccc3c(=O)n2-c2ccc(Cl)cc2)s1 [Example 251] | 85 |
| COC(=O)Nc1nc(C)c(-c2nc3ccccc3c(=O)n2-c2ccccc2)s1 [Example 155] | 24 |
| COc1ccc(-n2c(-c3sc(NC(=O)c4ccc(C)cc4)nc3-c3ccccc3)nc3ccccc3c2=O)cc1 [Example 223] | -24 |
| Cc1cccc(-n2c(-c3sc(Nc4ccc(Cl)cc4)nc3C)nc3ccccc3c2=O)c1 [Example 183] | 2 |
| COc1cccc(-n2c(-c3sc(NC(=O)c4ccccc4)nc3-c3ccccc3)nc3ccccc3c2=O)c1 [Example 214] | 34 |
| CC(=O)c1ccc(-n2c(-c3sc(Nc4ccccc4)nc3-c3ccccc3)nc3ccccc3c2=O)cc1 [Example 267] | 43 |
| Cc1ccc(C(=O)Nc2nc(-c3ccccc3)c(-c3nc4ccccc4c(=O)n3-c3ccccc3C)s2)cc1 [Example 176] | -8 |
| CCOC(=O)Nc1nc(-c2ccccc2)c(-c2nc3ccccc3c(=O)n2-c2ccccc2)s1 [Example 159] | 80 |
| Cc1cccc(-n2c(-c3sc(NC(=O)c4ccccc4)nc3-c3ccccc3)nc3ccccc3c2=O)c1 [Example 188] | 42 |
| Cc1cccc(-n2c(-c3sc(Nc4ccc(Cl)cc4)nc3-c3ccccc3)nc3ccccc3c2=O)c1 [Example 189] | -4 |
| COc1ccc(-n2c(-c3sc(Nc4ccc(Cl)cc4)nc3-c3ccccc3)nc3ccccc3c2=O)cc1 [Example 225] | 47 |
| CCOC(=O)Nc1nc(-c2ccccc2)c(-c2nc3ccccc3c(=O)n2-c2ccc(C(C)=O)cc2)s1 [Example 264] | 25 |
| O=c1c2ccccc2nc(-c2sc(Nc3ccc(Cl)cc3)nc2-c2ccccc2)n1-c1ccc(Cl)cc1 [Example 256] | 99 |
| Cc1ccc(Nc2nc(-c3ccccc3)c(-c3nc4ccccc4c(=O)n3-c3ccc(Cl)cc3)s2)cc1 [Example 257] | -10 |
| CC(=O)c1ccc(-n2c(-c3sc(Nc4ccccc4)nc3C)nc3ccccc3c2=O)cc1 [Example 262] | 15 |
